Quick list: Inhibition per entry.
Test system: Pseudomonas aeruginosa
Conditions: Concentration 20 uM; ASSAY_TEST Inhibition of Bacterial Growth; detection method Absorption (OD600); MEDIA CAMHB; plate type 384well; NBS; CORNING #3640; time 18 hr
Description: Antibacterial activity against Pseudomonas aeruginosa ATCC 27853 (CO-ADD:GN_042); MIC in CAMBH media using NBS plates, by OD(600)
The whole screen tested about 23,000 compounds, of which about 30 (0.1%) showed an effect of 50% or more. For the sample, strong results were picked, then their nearest neighbours and some compounds at random. Entries with a potency or affinity are not part of this list.
State the answer as a number, implicitly in %.

Sample answers from the record:
// query Inhibition lookup needed for CN1C(C(=O)Nc2ccccn2)=C(O)c2ccccc2S1(=O)=O.O , thanks.
// result 7.03

// query Inhibition lookup needed for CCOC(=O)[C@H](CCc1ccccc1)N[C@@H](C)C(=O)N1[C@H](C(=O)O)C[C@@H]2CCC[C@@H]21 , thanks.
// result 53.62

// query Inhibition lookup needed for CCOC(=O)[C@H](CCc1ccccc1)N[C@@H](C)C(=O)N1Cc2ccccc2C[C@H]1C(=O)O.Cl [QUINAPRIL HYDROCHLORIDE] , thanks.
// result 14.62

From here, focus on the item given below.
// query Inhibition lookup needed for CCOC(=O)OC(C)OC1=C(C(=O)Nc2ccccn2)N(C)S(=O)(=O)c2ccccc21 (centres undefined) , thanks.
// result 53.02
